target: ATPase family AAA domain-containing protein 5 (Homo sapiens) (UniProt Q96QE3); assay: qHTS screen for small molecules that inhibit ELG1-dependent DNA repair in human embryonic kidney (HEK293T) cells expressing luciferase-tagged ELG1: Hit Confirmation using MMS Stimulated ELG1 (AID 624249); details: HEK293T luciferase-tagged ELG1 level; series mostly up to 46.1 µM; further: nearly all actives have a fitted effect of over 60% in size
Sequence (Q96QE3 whole entry, looked up, the tested form may be a part): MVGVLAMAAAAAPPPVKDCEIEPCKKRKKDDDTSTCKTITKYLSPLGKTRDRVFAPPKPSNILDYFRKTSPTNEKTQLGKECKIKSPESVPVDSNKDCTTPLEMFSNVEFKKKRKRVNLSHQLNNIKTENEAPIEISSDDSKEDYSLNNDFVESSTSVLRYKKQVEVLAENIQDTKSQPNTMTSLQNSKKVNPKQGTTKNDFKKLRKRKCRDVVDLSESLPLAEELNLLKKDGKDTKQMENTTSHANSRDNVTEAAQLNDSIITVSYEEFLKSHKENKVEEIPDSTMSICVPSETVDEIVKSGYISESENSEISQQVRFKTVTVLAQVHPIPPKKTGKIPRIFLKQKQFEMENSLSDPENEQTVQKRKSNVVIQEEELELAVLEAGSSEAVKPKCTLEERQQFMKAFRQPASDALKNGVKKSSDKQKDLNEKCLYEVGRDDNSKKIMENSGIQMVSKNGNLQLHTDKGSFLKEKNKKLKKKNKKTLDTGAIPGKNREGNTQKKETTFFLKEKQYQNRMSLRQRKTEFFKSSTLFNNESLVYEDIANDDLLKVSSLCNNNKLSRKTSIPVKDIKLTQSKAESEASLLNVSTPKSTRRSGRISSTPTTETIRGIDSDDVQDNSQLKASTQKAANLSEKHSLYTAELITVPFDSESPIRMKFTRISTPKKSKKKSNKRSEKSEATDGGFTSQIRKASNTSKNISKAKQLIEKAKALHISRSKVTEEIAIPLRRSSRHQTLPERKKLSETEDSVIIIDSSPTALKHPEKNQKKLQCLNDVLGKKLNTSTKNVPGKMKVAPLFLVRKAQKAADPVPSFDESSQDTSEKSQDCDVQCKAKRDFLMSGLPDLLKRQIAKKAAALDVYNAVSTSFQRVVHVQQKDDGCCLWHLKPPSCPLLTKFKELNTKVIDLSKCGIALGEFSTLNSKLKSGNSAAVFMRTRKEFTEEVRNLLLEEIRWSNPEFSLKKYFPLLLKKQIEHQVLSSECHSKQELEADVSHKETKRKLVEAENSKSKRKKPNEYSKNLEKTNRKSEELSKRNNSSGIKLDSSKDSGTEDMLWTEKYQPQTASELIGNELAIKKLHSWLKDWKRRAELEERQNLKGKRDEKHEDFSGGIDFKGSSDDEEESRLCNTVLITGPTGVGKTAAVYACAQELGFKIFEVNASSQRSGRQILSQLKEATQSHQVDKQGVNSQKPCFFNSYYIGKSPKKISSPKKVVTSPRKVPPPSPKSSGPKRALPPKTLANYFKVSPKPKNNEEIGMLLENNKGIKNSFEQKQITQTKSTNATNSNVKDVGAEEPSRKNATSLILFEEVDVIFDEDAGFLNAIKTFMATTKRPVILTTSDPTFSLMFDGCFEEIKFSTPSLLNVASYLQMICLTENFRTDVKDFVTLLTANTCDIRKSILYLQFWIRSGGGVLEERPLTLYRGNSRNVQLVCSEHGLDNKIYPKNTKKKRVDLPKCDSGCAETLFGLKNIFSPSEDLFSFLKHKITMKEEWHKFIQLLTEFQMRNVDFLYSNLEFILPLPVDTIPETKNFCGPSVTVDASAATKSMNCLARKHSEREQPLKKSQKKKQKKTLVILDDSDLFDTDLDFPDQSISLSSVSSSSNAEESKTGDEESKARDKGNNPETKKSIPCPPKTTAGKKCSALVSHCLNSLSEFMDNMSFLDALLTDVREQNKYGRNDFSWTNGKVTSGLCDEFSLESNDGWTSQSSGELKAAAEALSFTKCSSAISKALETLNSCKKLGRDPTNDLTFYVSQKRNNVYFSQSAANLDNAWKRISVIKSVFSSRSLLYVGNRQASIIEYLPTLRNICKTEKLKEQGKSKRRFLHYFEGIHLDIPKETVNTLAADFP
This is one part of the list. Results filed as inconclusive are left out. Active and inactive are the calls of the source. The call rests on the fitted dose curve; in most records, active means well fitted inhibition curve with a large enough effect; inconclusive means small, poorly fitted or top-dose-only effect; inactive means no such curve, though single readings can be large or run the other way.
Give your call using only these classes: y (active), n (inactive)

The following compounds have reported results that may help.
{"compound": "COc1ccc(NC(=O)C2CCC(CNc3c(N4CCCCC4)c(=O)c3=O)CC2)c(OC)c1 (stereo unspecified)", "test-target": "ATPase family AAA domain-containing protein 5 (Homo sapiens) (UniProt Q96QE3)", "assigned-class": "n"}
{"compound": "COc1ccc(S(=O)(=O)Nc2ccc3oc(C)c(C(C)=O)c3c2)cc1", "test-target": "ATPase family AAA domain-containing protein 5 (Homo sapiens) (UniProt Q96QE3)", "assigned-class": "y"}
{"compound": "OCCCNc1nccc(-c2cc(Nc3cccc(Cl)c3)ncn2)n1", "test-target": "ATPase family AAA domain-containing protein 5 (Homo sapiens) (UniProt Q96QE3)", "assigned-class": "y"}
{"compound": "O=C(C1CCCN(S(=O)(=O)c2ccccc2)C1)N1CCN(c2ccc(F)cc2)CC1 (stereo unspecified)", "test-target": "ATPase family AAA domain-containing protein 5 (Homo sapiens) (UniProt Q96QE3)", "assigned-class": "y"}
{"compound": "COc1ccc(CSc2nc(N3CCOCC3)c3c(c2C#N)CC(C)(C)OC3)cc1", "test-target": "ATPase family AAA domain-containing protein 5 (Homo sapiens) (UniProt Q96QE3)", "assigned-class": "n"}
{"compound": "CS(=O)(=O)c1ccc2nc(NC(=O)C3CCCCC3)sc2c1", "test-target": "ATPase family AAA domain-containing protein 5 (Homo sapiens) (UniProt Q96QE3)", "assigned-class": "n"}

Exercise: Any idea what this test logged for `COc1ccc(-c2nn(-c3ccccc3)cc2/C=C\C(=O)N2CCOCC2)cc1[N+](=O)[O-]` ?
Key: n

Exercise: So what was the verdict on `COc1ccc(CNc2ncnc3ccccc23)cc1` in this test?
Key: y

Exercise: Check the results log: what was the call for `Cc1ccc(C)c(S(=O)(=O)N2CCN(c3ncnc4sccc34)CC2)c1` ?
Key: y

Exercise: What is the recorded call for this compound in the test? `Cc1cc2oc(=O)cc(CN3CCN(S(=O)(=O)c4cccs4)CC3)c2cc1C(C)C`
Key: y

Exercise: Answer briefly: the call reported for `CC(C)(CNC(=O)c1ccc(Cl)c(S(=O)(=O)N2CCc3ccccc3C2)c1)N1CCOCC1` in this assay.
Key: y

====

assay: qHTS profiling for inhibitors of Plasmodium falciparum proliferation (AID 504749);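 further: 0% = DMSO vehicle and full inhibition = artemisinin control; nearly all actives have a fitted effect of over 60% in size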; settings: P. falciparum in erythrocytes, SYBR Green DNA, 72 h; at 28.7 µM (top of the series); parasite line A
Records with an inconclusive call do not appear.
In this section, each of the compounds is paired with its reported activity, negative = inhibition.
Write the value in % as a bare number.

{"compound": "CC(=O)OCC(=O)[C@@]1(O)CCC2C3CCC4=CC(=O)CC[C@]4(C)C3=CC[C@@]21C (some centres undefined)", "unit-symbol": "%", "activity, negative = inhibition": 11}

Exercise: Fill in the blank: the reported activity, negative = inhibition of CNCC(=O)NC(CCCN=C(N)N)C(=O)NC(C(=O)NC(Cc1ccc(O)cc1)C(=O)NC(C(=O)NC(Cc1cnc[nH]1)C(=O)N1CCCC1C(=O)NC(C)C(=O)O)C(C)C)C(C)C (centres undefined) is ____.
Key: 15.8

Exercise: Fill in the blank: the reported activity, negative = inhibition of CCC(Oc1ccccc1)C(=O)NC1C(=O)N2C1SC(C)(C)C2C(=O)O (centres undefined) is ____.
Key: -3.05

Exercise: Fill in: activity, negative = inhibition of CC(=O)OCC1=C(C(=O)O)N2C(=O)C(NC(=O)Cc3ccccc3)C2SC1 (centres undefined) is ___
Key: 1.08

====

target: Cytochrome P450 3A4 (Homo sapiens) (UniProt P08684); assay: qHTS Assay for Inhibitors and Substrates of Cytochrome P450 3A4 (AID 884); conditions: recombinant CYP3A4, Luciferin-PPXE luminescence; series mostly up to 57.1 µM; further: nearly all actives have a fitted effect of over 50% in size
Sequence (P08684 whole entry, looked up): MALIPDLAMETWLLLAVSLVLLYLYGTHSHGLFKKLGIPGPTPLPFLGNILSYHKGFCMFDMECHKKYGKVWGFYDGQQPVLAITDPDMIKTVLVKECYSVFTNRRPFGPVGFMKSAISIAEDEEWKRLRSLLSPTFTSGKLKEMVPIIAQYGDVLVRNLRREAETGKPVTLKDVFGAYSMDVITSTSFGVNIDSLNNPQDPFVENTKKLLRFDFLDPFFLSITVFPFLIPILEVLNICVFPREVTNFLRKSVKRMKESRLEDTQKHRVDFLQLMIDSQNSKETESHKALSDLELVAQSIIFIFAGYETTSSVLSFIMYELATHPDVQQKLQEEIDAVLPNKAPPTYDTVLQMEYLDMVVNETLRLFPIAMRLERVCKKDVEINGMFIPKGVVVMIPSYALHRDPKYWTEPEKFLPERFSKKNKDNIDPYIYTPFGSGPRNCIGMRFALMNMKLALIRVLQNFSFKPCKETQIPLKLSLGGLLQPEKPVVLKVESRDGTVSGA
Results filed as inconclusive are left out. The source made the active and inactive calls. The call rests on the fitted dose curve; in most records, active means well fitted inhibition curve with a large enough effect; inconclusive means small, poorly fitted or top-dose-only effect; inactive means no such curve, though single readings can be large or run the other way.
Outcome field: choose from 1.0 (active), 0.0 (inactive)

Worked cases, answers included:
{"compound": "O=c1cc(-c2ccccc2)oc2cc(O[C@@H]3O[C@H](CO)[C@@H](O)[C@H](O)[C@H]3O)c(O)c(O)c12", "assigned-class": 0.0}
{"compound": "COC(=O)NC(c1cccc(C)c1)[C@]1(C(C)=O)CCOC1=O (stereo partly specified)", "assigned-class": 1.0}
{"compound": "COC(=O)[C@H]1C[C@H]2CC[C@H](O)C[C@H]2N1Cc1c(F)cccc1Cl", "assigned-class": 1.0}
{"compound": "CCC1=C(OC(=O)N(CC)CC)N2C(=O)OC(=NCCOC)[C@]2(C)[C@H]2C1=CC[C@H]1C(=O)N(CC)C(=O)[C@H]12", "assigned-class": 1.0}
{"compound": "FC(F)(F)c1ccc(CN2C[C@@H]3C(c4ccc(Cl)nc4)C4(c5cccnc5)CC3(C4)[C@H]2c2ccccc2)cc1 (stereo partly specified)", "assigned-class": 1.0}
{"compound": "COC(=O)c1ccc(C(NC(=O)OCc2ccccc2)/C(=C/[C@@H](C)C(=O)NCc2ccc(-c3ccccc3)cc2)c2cccnc2)cc1 (stereo partly specified)", "assigned-class": 1.0}
{"compound": "CN(C)C(=O)[C@]1(C)C[C@H]1[C@H](NC(=O)CNC(=O)[C@@H]1CCCN1C(=O)[C@]1(C)C[C@H]1[C@H](NC(=O)OCc1ccccc1)c1ccccc1)c1ccccc1", "assigned-class": 1.0}
{"compound": "COc1ccccc1-c1oc2ccccc2c(=O)c1O", "assigned-class": 1.0}
{"compound": "Cc1ccc(S(=O)(=O)N[C@H]2COC(=O)C/C=C\\[C@@H](C)[C@H](NS(=O)(=O)c3ccc(C)cc3)COC(=O)C/C=C\\[C@H]2C)cc1", "assigned-class": 1.0}
{"compound": "C/C(CCN1CCc2nc(-c3ccccc3)c(-c3ccccc3)cc2C1)=N\\OC[C@@H](O)COCc1ccco1", "assigned-class": 1.0}

Exercise: Hi team, can someone confirm the assay call for `C[C@]1(C(=O)NCCCNc2ncc(C(F)(F)F)cc2Cl)C=C[C@@H](Cc2ccccc2)N1C(=O)c1ccccc1` ?
Key: 1.0

Exercise: Hey, what did the test say about `CNC(=O)[C@]1(C)C[C@H]1[C@H](NC(=O)[C@]1(C)C[C@H]1[C@H](NC(=O)[C@]1(C)C[C@H]1[C@H](NC(=O)[C@]1(C)C[C@H]1[C@H](NC(=O)OCc1ccccc1)c1ccccc1)c1ccccc1)c1ccccc1)c1ccccc1` ?
Key: 1.0

Exercise: Please share the test call associated with `CCC1=C(OC(=O)N(CC)CC)N2C(=O)OC(=NCCc3c[nH]c4ccccc34)[C@]2(C)[C@H]2C1=CC[C@H]1C(=O)N(CC(=O)OC)C(=O)[C@H]12` .
Key: 1.0

Exercise: What outcome does the record of this test show for OCC(O)C(O)C(O)C(O)C(O)CO (stereo unspecified) ?
Key: 0.0

Exercise: Test call, this compound: COC(=O)c1ccc(C(NC(=O)OCc2ccccc2)/C(=C/[C@@H](C)C(=O)N(C)Cc2cccnc2)c2cccnc2)cc1 (stereo partly specified)
Key: 1.0

Exercise: For this compound, state the assay outcome: C/C=C/OC(=O)NC(c1ccccc1)[C@@]1(C(=O)OC)CCCC1=O (stereo partly specified)
Key: 1.0

====

biological target: Tyrosine-protein kinase Yes (Homo sapiens) (UniProt P07947); experiment: qHTS for small molecule inhibitors of Yes1 kinase: Primary Screen (AID 686947); settings: Yes1 kinase biochemical qHTS inhibition; series mostly up to 76.9 µM; further: nearly all actives have a fitted effect of over 60% in size; further: potency means the concentration at half of the fitted maximal effect
Sequence (P07947 whole entry, looked up): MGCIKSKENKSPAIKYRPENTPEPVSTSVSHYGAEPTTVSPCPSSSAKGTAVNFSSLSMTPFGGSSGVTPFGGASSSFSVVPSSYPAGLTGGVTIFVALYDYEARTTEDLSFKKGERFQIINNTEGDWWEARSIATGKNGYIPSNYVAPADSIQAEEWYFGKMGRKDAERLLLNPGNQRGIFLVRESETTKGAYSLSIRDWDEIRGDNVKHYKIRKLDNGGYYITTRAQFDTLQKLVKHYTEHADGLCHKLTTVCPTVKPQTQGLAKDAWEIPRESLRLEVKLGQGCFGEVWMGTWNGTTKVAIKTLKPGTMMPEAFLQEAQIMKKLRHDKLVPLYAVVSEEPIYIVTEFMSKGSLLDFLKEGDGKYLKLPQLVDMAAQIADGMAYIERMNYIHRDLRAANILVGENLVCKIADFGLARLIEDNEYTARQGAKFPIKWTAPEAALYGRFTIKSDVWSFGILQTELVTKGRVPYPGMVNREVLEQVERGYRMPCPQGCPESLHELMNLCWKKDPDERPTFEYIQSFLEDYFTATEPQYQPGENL
Records with an inconclusive call do not appear. Activity calls are given as the source filed them. Calls follow the shape of the dose curve; as a rule, active = well fitted inhibition curve with a large enough effect; inconclusive = small, poorly fitted or top-dose-only effect; inactive = no such curve, though single readings can be large or run the other way.

{"structure-smiles": "N#Cc1c(NC(=O)c2ccccc2F)sc2c1CCCC2", "test-target": "Tyrosine-protein kinase Yes (Homo sapiens) (UniProt P07947)", "Potency": "inactive"}
{"structure-smiles": "c1ccc(Oc2ccc(Nc3ncc(-c4ccccc4)o3)cc2)cc1", "test-target": "Tyrosine-protein kinase Yes (Homo sapiens) (UniProt P07947)", "Potency": "inactive"}
{"structure-smiles": "Fc1ccc(-c2cc(-c3cn[nH]c3-c3ccccn3)ccn2)cc1", "test-target": "Tyrosine-protein kinase Yes (Homo sapiens) (UniProt P07947)", "Potency": "29.2 µM (active)"}

====

assay: qHTS for Inhibitors of Plasmodium falciparum (GB4) proliferation (AID 504315); further: nearly all actives have a fitted effect of over 50% in size; further: potency means the concentration at half of the fitted maximal effect; conditions: P. falciparum GB4 in erythrocytes, SYBR Green DNA, 72 h; series mostly up to 6.7 µM
Records with an inconclusive call do not appear. Active and inactive are the calls of the source. Calls follow the shape of the dose curve; as a rule, active = well fitted inhibition curve with a large enough effect; inconclusive = small, poorly fitted or top-dose-only effect, or effect the other way; inactive = flat fitted curve, though single readings scatter.
readout-name: Potency

Solved entries (count: 8):
{"molecule": "C=CCN1c2ccccc2[C@]23C[C@@H](C(=O)OC)N(C(C)=O)C2=NC(C(=O)OC)=C(C(=O)OC)[C@H]13", "Potency": "inactive"}
{"molecule": "CC(C)(C)OC(=O)NCCCC1=CC2=CC(=O)C(C)(OC(=O)c3cccs3)C(=O)C2=CO1 (centres undefined)", "Potency": "inactive"}
{"molecule": "COC(=O)C1=C(C)N(CCc2cc(OC)c(OC)c(OC)c2)C(=O)N[C@H]1c1ccccc1", "Potency": "inactive"}
{"molecule": "CCCCc1nc2c(c3c1C[C@H](C)OC3)CN(S(=O)(=O)c1ccc(Cl)c3nonc13)CC2", "Potency": "inactive"}
{"molecule": "COC(=O)CCC(=O)OC1(C)C(=O)C=C2C=C(C3CC3)N(C3CC3)C=C2C1=O (centres undefined)", "Potency": "inactive"}
{"molecule": "COC(=O)[C@@H](NC(=O)N1CCc2nc(-c3ccc(OC)cc3C)c3c(c2C1)CO[C@@H](c1ccccc1)C3)C(C)C", "Potency": "1900 nM (active)"}
{"molecule": "C=C(C(C)=O)C(O)c1cccs1 (centres undefined)", "Potency": "inactive"}
{"molecule": "C=C(C(C)=O)C(O)c1ccc2ccccc2c1 (centres undefined)", "Potency": "inactive"}

Now consider a different molecule.
Exercise: What value of measured Potency is listed for `COC(=O)C1=C(C(=O)OC)[C@@H]2N(C)c3ccccc3[C@@]23C[C@@H](C(=O)OC)N(S(=O)(=O)c2cccs2)C3=N1` ?
Key: inactive
